System: SK-OV-3
Experiment: NCI tumour cell line growth inhibition, 48 h
Activity calls are given as the source filed them. Rule as the data show it: active = GI50 up to about 1.1 µM and inactive = higher.
// one of 1 = active, -1 = inactive, no free text

Worked cases, answers included:
molecule	category
CN(C)CCNC(=O)c1cccc2cc3c(Cl)cccc3nc12	-1
c1ccc([P+](c2ccccc2)(c2ccccc2)C2Sc3ccccc3S2)cc1	-1
CC(C)c1cccc2sc(NC(=O)C(=O)C(C#N)c3cccc4ccccc34)nc12 (centres undefined)	-1
O=C1CSC(c2c[nH]c3ccccc23)N1c1ccc(Cl)cc1 (centres undefined)	-1
S=C1Cc2cc3ccccc3nc2-c2ccccc2N1	-1

## Input How did this test come out for CCCCCC(=O)OCC1(CO)C/C(=C\CC(C(C)C)C(C)C)C(=O)O1 (centres undefined) ?
## Output -1

## Input How did this test come out for CCOc1ccc2c(c1)[n+]([O-])c(S(=O)(=O)c1ccc(C)cc1)c(N)[n+]2[O-] ?
## Output -1

## Input How did this test come out for Cc1ccc2[nH]c3c(C)c4cc[n+](C)cc4c(C)c3c2c1 ?
## Output -1

## Input How did this test come out for COCCOCCOCCOc1ccc(C(C#N)N(CCc2ccccc2)C(=O)c2cc(C(=O)N(CCc3ccccc3)C(C#N)c3ccc(OCCOCCOCCOC)cc3)cc(C(=O)N(CCc3ccccc3)C(C#N)c3ccc(OCCOCCOCCOC)cc3)c2)cc1 (centres undefined) ?
## Output -1

## Input How did this test come out for Cc1cc(Br)c(N2C3=C(CC4=C2CCCC4=O)C(=O)CCC3)c(Br)c1 ?
## Output -1

* * *

Tested on: SF-295
Experiment: NCI tumour cell line growth inhibition, 48 h
Activity calls are given as the source filed them. Cut-off read from the data, not from the text of the source: active = GI50 up to about 1.1 µM and inactive = higher.
// one of active, inactive, no free text

Worked cases, answers included:
molecule	category
COC(=O)c1c(C)nc(C)c(NO)c1-c1ccccc1C(F)(F)F	inactive
COC(=O)NC1=NNC(=O)c2ccccc2N1	inactive
CN(Cc1cnc2nc(N)nc(N)c2n1)c1ccc(C(=O)NC(CCC(=O)O)C(=O)O)cc1 (stereo unspecified)	active

Lab note: next molecule to report on.
## Input How did this test come out for ClC1CCC2OOC1O2 (stereo unspecified) ?
## Output inactive

* * *

System: A549
Experiment: NCI tumour cell line growth inhibition, 48 h
Activity calls are given as the source filed them. No stated cut-off is given here; in the data, active = GI50 up to about 1.1 µM and inactive = higher. Where a SMILES comes first, the peptide text is derived from it. The star is where a group is joined. Boc = CC(C)(C)OC(=O)*; nBu = CCCC*
measurement.kind: GI50

compound	system.name	GI50
CCCCOc1ccc(CC(NC(=O)OC(C)(C)C)C(=O)NC(C)C(=O)NC(Cc2ccccc2)C(=O)NCC(N)=O)cc1 (stereo unspecified) (Boc-Y(nBu)AFG-NH2; configuration not given here)	A549	> 100 µM (inactive)
O=C(Cc1ccccc1)N/N=C(\C1=Nc2ccc([N+](=O)[O-])cc2NC1O)C(O)c1ccc([N+](=O)[O-])cc1 (stereo unspecified)	A549	> 100 µM (inactive)
CC(C)c1cccc(C(C)C)c1NC(=O)C(=O)C1CCC2=C(Sc3ccccc3N2)C1=O (stereo unspecified)	A549	> 100 µM (inactive)
CC1(c2ccc(F)cc2)C2C(=O)NC(=O)C1C(=O)NC2=O (stereo unspecified)	A549	> 100 µM (inactive)

Please look at the items below and tell me GI50 for each one, in order.
1. Cc1ccc(O)c(C2=NNC(c3cccc(Cl)c3)C2)c1 (stereo unspecified)
2. C1COC(NC(C2CC2)C2CC2)=N1
3. CC1(C)N=c2c(ncn2CCO)=C(C(N)=O)N1
4. CC(=O)N1C=Cc2c(c(C)c3c([nH]c4ccccc43)c2C)C1
5. COc1cc(C)c2c(c1C=O)Oc1c(c(C)c(O)c3c1C(O)OC3=O)OC2=O (stereo unspecified)
6. CSCC[C@@H]1C(=O)N(C)[C@H](C(C)(C)C)N1C(=O)c1ccccc1

## Output
1. 34.8 µM (inactive)
2. > 100 µM (inactive)
3. > 100 µM (inactive)
4. 4.54 µM (inactive)
5. > 100 µM (inactive)
6. > 100 µM (inactive)

* * *

System: NCI-H23
Experiment: NCI tumour cell line growth inhibition, 48 h
The source made the active and inactive calls. Rule as the data show it: active = GI50 up to about 1.1 µM and inactive = higher.
// one of T (active), F (inactive), no free text

Worked cases, answers included:
compound	category
CCOC(=O)C1(C)CCCCC(=O)N1 (configuration not stated)	F
Cc1cc(=O)oc2cc(OC(=O)Nc3ccccc3)ccc12	F
CC1(C)CC(=O)C2=C(C1)c1c(ccc3ccccc13)NC2c1cn(Cc2ccc(Cl)cc2)c2ccccc12 (configuration not stated)	F

## Input How did this test come out for O=C1Nc2ccccc2SC1=C(C(=O)c1ccccc1)C(=O)c1ccccc1 ?
## Output F

## Input How did this test come out for CCOC(=O)Cn1c(=O)c2nc(SC)sc2n(CC)c1=S ?
## Output F

## Input How did this test come out for Brc1ccc(C2(N3CCCCC3)CCCCC2)s1 ?
## Output F

## Input How did this test come out for COc1ccc(/C=C2\N=C(N3CCCCC3)NC2=O)cc1 ?
## Output F

## Input How did this test come out for COC(=O)c1c(O)ccc2c1c1c(n2Cc2ccccc2Cl)C(=O)c2ccccc2C1=O ?
## Output F

## Input How did this test come out for C/C=C/OC1C(C2COC(C)(C)O2)OC2OC(C)(C)OC21 (configuration not stated) ?
## Output F

## Input How did this test come out for CCOc1ccc2c(c1)[n+]([O-])c(S(=O)(=O)c1ccc(C)cc1)c(N)[n+]2[O-] ?
## Output F

* * *

Test system: SK-MEL-28
Test: NCI tumour cell line growth inhibition, 48 h
Activity calls are given as the source filed them. Cut-off read from the data, not from the text of the source: active = GI50 up to about 1.1 µM and inactive = higher.
measurement.kind: GI50

molecule	system.name	GI50
CC(=O)OCCOCCN1CCN(C2=C(Cl)C(=O)c3c(O)ccc(O)c3C2=O)CC1	SK-MEL-28	1.04 µM (active)
O=c1c2ccccc2nnn1-c1n[nH]c2ccccc12	SK-MEL-28	> 100 µM (inactive)

Please look at the items below and tell me GI50 for each one, in order.
1. S=C1Cc2cc3ccccc3nc2-c2ccccc2N1
2. CCN1CCCCCCCCCC(=N/O)/C(=N\O)C1

## Output
27.5 µM (inactive)
> 100 µM (inactive)

Please look at the items below and tell me GI50 for each one, in order.
1. CCOP(=O)(OCC)C(C(=O)OC)C(=O)C(=O)Nc1c(C)cc(Br)cc1C (configuration not stated)
2. Cc1cc(=O)n2nc(CN3CCCCC3)sc2n1

## Output
["> 100 µM (inactive)", "> 100 µM (inactive)"]

Please look at the items below and tell me GI50 for each one, in order.
1. C#CCCCC(=C)C[C@H](OCc1ccccc1)[C@H]1OC(=O)[C@@H]1C
2. CCOC(=O)c1ccc(O)cc1 [ETHYLPARABEN]
3. O=C1/C(=N/c2ccc(Nc3ccccc3)cc2)Oc2ccccc21
4. CC(=O)Oc1ccccc1/C=C/C(=O)/C=C/c1ccccc1OC(C)=O
5. CC(=O)C1C(=O)C(=O)N(c2ccc(Cl)c(Cl)c2)C1=O (configuration not stated)
6. COc1ccc2c(c1)[n+]([O-])c(/C(C)=N/NC(N)=S)c(C)[n+]2[O-]

## Output
> 100 µM (inactive)
> 100 µM (inactive)
4.19 µM (inactive)
1.97 µM (inactive)
> 100 µM (inactive)
> 56.2 µM (inactive)

Please look at the items below and tell me GI50 for each one, in order.
1. NC(=O)C(Nc1c(Cl)cccc1Cl)c1cc2cc(Br)ccc2nc1Cl (configuration not stated)
2. Cc1cc(C(O)CCCc2ccccc2)cc(C)c1O (configuration not stated)
3. COC(=O)CCC(NC(=S)N/N=C(\C)c1cnc2ccccc2n1)C(=O)OC (configuration not stated)
4. Cc1ccc(C)c2c1n1c(=O)n(C)c(=O)n21
5. O=C(O)Cn1ccnc1[N+](=O)[O-]
6. CO[C@@]12C[C@@H](C)C3=CCC(C)=C3CC1=C(C)C(=O)O2
7. NC(=S)N/N=C(\CCC(=O)Nc1ccccc1[N+](=O)[O-])CC(=O)c1ccco1

## Output
["> 100 µM (inactive)", "34.4 µM (inactive)", "40.9 µM (inactive)", "> 100 µM (inactive)", "> 100 µM (inactive)", "> 100 µM (inactive)", "> 100 µM (inactive)"]

Please look at the items below and tell me GI50 for each one, in order.
1. CCCN1CC=CCC1
2. Nc1ccc(-c2nc3ccccc3s2)cc1C(F)(F)F
3. CCC1(O)C[C@H]2CN(CCCc3c([nH]c4ccccc34)[C@@](C(=O)OC)(c3cc4c(cc3OC)N(C)C3[C@](O)(C(=O)OC)[C@H](OC(C)=O)[C@]5(CC)C=CCN6CC[C@]43[C@H]65)C2)C1 (some centres not stated)

## Output
["> 100 µM (inactive)", "17.3 µM (inactive)", "3.56 µM (inactive)"]
